From: PubChem BioAssay (NCI)

- Tested on: OVCAR-3 ovarian
- assay-info: NCI tumour cell line growth inhibition, 48 h
measure-name: TGI

1. C[N+](C)(C)CC(=O)N/N=C(\C(=O)Nc1ccc(Cl)cc1)C1C(=O)N(c2ccccc2)N=C1N (centres undefined) | > 100 µM
2. C/C=C\C(C)=C/C(C)C(=O)CC(O)CC1CC(=O)NC(=O)C1 (centres undefined) | > 100 µM
3. CCN(CC)CCCC(C)NC(=S)N/N=C(\C)c1ccccn1 (centres undefined) | > 100 µM
4. COc1cc2c(cc1C)NC(=O)/C2=C/c1c(Cl)n(C)c2ccccc12 | 15.3 µM
5. CC(=O)NC(Cc1ccccc1)C(=S)N1CCCC1 (centres undefined) | > 100 µM
6. Cn1c([N+](=O)[O-])cnc1/C=C1\Oc2ccc(Cl)cc2C1=O | 0.952 µM
7. Cc1ccc(CCNC(=S)SCC(NC(=O)CCC(N)C(=O)O)C(=O)NCC(=O)O)cc1 (centres undefined) | 5.27 µM
8. O=C(/C=C\c1ccc(Cl)c(Cl)c1)c1ccccc1 | 18.9 µM
9. CC1CCCC2(O1)OC1CC(=O)OC1C1=C2C(=O)c2ccccc2C1=O (centres undefined) | 10.5 µM
10. COC(=O)C1CCC2(CC1)NC(=O)NC2=O (centres undefined) | > 100 µM
11. C=C1C(=O)O[C@H]2[C@H]1CC/C(Cn1cc(CNC(=O)c3cc4ccccc4[nH]3)nn1)=C\CC[C@@]1(C)O[C@@H]21 | 5.63 µM
12. COc1ccc(/C=N/NC(=O)c2ccccc2Nc2ccccc2C(=O)N/N=C/c2ccc(OC)c(OC)c2)cc1OC | > 100 µM
13. Cc1cccc2ns[s+]c12 | > 100 µM
14. CC[N+]1(C)CCC(O)(/C=C/c2ccccc2)C(C(=O)/C=C/c2ccccc2)C1 (centres undefined) | 28 µM
15. Cc1cccc(NC(=O)c2sc3nc4c(cc3c2N)CCC4)c1C | 1.47 µM
16. CC1=CC(=O)C[C@]2(C)[C@@H](O)CC(C(C)CO)C[C@@H]12 (some centres undefined) | > 100 µM
17. COc1cc2c(cc1Nc1nc(Nc3ccsc3C(N)=O)c3cc[nH]c3n1)N(C(=O)CN(C)C)CCC2 | 2.13 µM
18. COc1cc(OC)cc(N(C)Cc2cnc3nc(N)nc(N)c3c2C)c1 | > 31.6 µM
19. O=C(NC(c1ccccc1)C(O)C(=O)OCc1ccc2c(c1)C(=O)c1ccccc1C2=O)c1ccccc1 (centres undefined) | 34.6 µM
20. COC(=O)c1c(OC(=O)c2ccccc2)noc1CC(=O)OC1C=CCCC1 (centres undefined) | > 100 µM
21. NCCN.O=N[O-].O=N[O-].O=N[O-].O=N[O-].[Co+3].[K+] | > 100 µM
22. CN1C(=N\S(=O)(=O)c2ccc(Cl)cc2)/C(=N/N=P(c2ccccc2)(c2ccccc2)c2ccccc2)c2ccccc21 | > 100 µM
23. COc1ccc(N=Nc2ccc3oc(=O)c(C(=O)Nc4ccc(OC)cc4)cc3c2)cc1 | 46.6 µM
24. O=C(N/N=C/c1cc(-c2ccccc2Cl)c(-c2ccccc2Cl)o1)c1ccncc1 | > 100 µM
25. Cn1c(N)c(N=Nc2ccc(S(N)(=O)=O)cc2)c(=O)n(C)c1=O | > 100 µM
26. COc1ccc(C(=O)CC(Cl)=C(Cl)Cl)cc1 | 41.2 µM
27. O=C1C2=C(Nc3cc([N+](=O)[O-])ccc3N2)OC1c1c[nH]c2ccc(COc3ccccc3)cc12 (centres undefined) | > 100 µM
28. O=C(CCc1nnc2s/c(=C\c3ccc(Cl)cc3Cl)c(=O)n12)Nc1cc(Cl)c(Cl)cc1Cl | > 100 µM
29. O=C(CSCC(=O)N/N=C\c1cc(Br)cc(Br)c1O)N/N=C\c1cc(Br)cc(Br)c1O | 93.8 µM
30. O=C(CN1C(=O)c2ccccc2C1=O)NC1(C(=O)O)CCCC1 | > 100 µM
31. O=S(=O)(N1CCCCN(S(=O)(=O)C(F)(F)F)CCCN(S(=O)(=O)C(F)(F)F)CCCN(S(=O)(=O)C(F)(F)F)CCCCN(S(=O)(=O)C(F)(F)F)CCCN(S(=O)(=O)C(F)(F)F)CCC1)C(F)(F)F | > 100 µM
32. COc1cc(C2c3cc4c(c(O)c3C(=O)C3CCC(=O)N32)OCO4)cc(OC)c1OC (centres undefined) | > 100 µM
33. CCCCCCn1c(=N)n(CC(O)COc2cccc(C)c2)c2ccccc21 (centres undefined) | 4.98 µM
34. COc1ccc(/C=C2\CC(C)CC3C2=NN(C(C)=O)C3c2ccc(OC)c(OC)c2)cc1OC (centres undefined) | 46 µM
35. O=C1CSC(c2ccc(Cl)cc2)N1c1ccc(-n2c(-c3ccccc3)nc3ccccc3c2=O)cc1 (centres undefined) | > 100 µM
36. N#Cc1ccc(/C=C2\Cc3ccccc3C2=O)cc1 | > 100 µM
37. Cc1nn(-c2ccccc2)c2ncc3c(c12)C(=O)N(Cc1ccccc1)C3=O | 9.84 µM
38. Cc1ccc(-n2cc(-c3ccc(Cl)cc3)c3c(NNC(=S)NCc4ccccc4)ncnc32)cc1 | 37.4 µM
39. CC(=O)NC1C(=O)CC(c2ccccc2)N(C)C1c1ccccc1 (centres undefined) | > 100 µM
